System: 556581-035-R-J1-PDC complex spheroid growth
Assay Comment: Anticancer human tumor 556581-035-R-J1-PDC patient-derived ovarian carcinoma cell line growth inhibition [AhR]
Cond: curve of first compound; second compound 3.16 µM
pIC50: −log10 of the molar value.
Measurement Label: pIC50

P = COc1ccc([C@@H](O)c2cc(-c3ncnc4cc(N5CCOCC5)ccc34)c(F)cc2Cl)nn1 + Cc1cncc(-c2nc(NCCc3c[nH]c4ccccc34)c3ncn(C(C)C)c3n2)c1
Q = CCc1c2c(nc3ccc(O)cc13)-c1cc3c(c(=O)n1C2)COC(=O)[C@]3(O)CC + CC(CO)NC(=O)c1cc(-c2ccc(Cl)cc2)nn(-c2cnn(C)c2)c1=O
R = COc1cccc2c1C(=O)c1c(O)c3c(c(O)c1C2=O)CC(O)(C(=O)CO)CC3OC1CC(N)C(O)C(C)O1 (stereo unspecified) + Cc1ccccc1N=Nc1ccc(NC(=O)c2ccnn2C)c(C)c1
Query: Rank ascending by pIC50. Lab note: final answer is the ordered label list.
Response: P, R, Q
(P: 5.16, R: 6.31, Q: 7.94)
